test system: HL-60; test: Cytotoxicity against human HL60 cells assessed as growth inhibition after 48 hrs by MTT assay; assay type: functional, cell-based; conditions: HL-60, 48 h
Task for the reader: assign each of the following compounds its reported pIC50.
Numbers only, as −log10 of the molar value.

Example results:
* CCc1n(C(c2ccccc2)c2cc3ccccc3o2)cc[n+]1CC(=O)c1ccc2ccccc2c1 (stereo not given) | 5.73
* COc1ccc(C(=O)C[n+]2ccn(C(c3ccccc3)c3cc4ccccc4o3)c2C)cc1 (stereo not given) | 5.78
* Cc1n(C(c2ccccc2)c2cc3ccccc3o2)cc[n+]1CC(=O)c1ccccc1 (stereo not given) | 5.50

--- query ---
Prompt: Quick one: pIC50 for O=C(C[n+]1ccn(C(c2ccccc2)c2cc3ccccc3o2)c1)c1ccc2ccccc2c1 (stereo not given) ?
Completion: 5.71

* * *

tested on: HL-60; assay: Cytotoxicity against human HL60 cells assessed as growth inhibition after 48 hrs by MTT assay; type: functional, cell-based; conditions: HL-60, 48 h
Assay endpoint: IC50

Example results:
- Cc1n(C(c2ccccc2)c2cc3ccccc3o2)cc[n+]1CC(=O)c1ccc(O)cc1 (configuration not stated): > 40 µM
- c1ccc(C(c2cc3ccccc3o2)n2cnc3ccccc32)cc1 (configuration not stated): > 40 µM
- C=CC[n+]1ccn(C(c2ccccc2)c2cc3ccccc3o2)c1C (configuration not stated): > 40 µM
- O=C(C[n+]1ccn(C(c2ccccc2)c2cc3ccccc3o2)c1)c1ccc(O)cc1 (configuration not stated): > 40 µM
- C=CC[n+]1cn(C(c2ccccc2)c2cc3ccccc3o2)c2ccccc21 (configuration not stated): > 40 µM

Quick batch: IC50 for everything below.
1. O=C(C[n+]1cn(C(c2ccccc2)c2cc3ccccc3o2)c2ccccc21)c1ccc(O)cc1 (configuration not stated)
2. C=CC[n+]1ccn(C(c2ccccc2)c2cc3ccccc3o2)c1CC (configuration not stated)
3. CCc1n(C(c2ccccc2)c2cc3ccccc3o2)cc[n+]1CC(=O)c1ccc(O)cc1 (configuration not stated)
4. O=[N+]([O-])c1ccc(C[n+]2cn(C(c3ccccc3)c3cc4ccccc4o3)c3ccccc32)cc1 (configuration not stated)
5. CCc1n(C(c2ccccc2)c2cc3ccccc3o2)cc[n+]1Cc1ccccc1 (configuration not stated)
6. COc1ccc(C(=O)C[n+]2cn(C(c3ccccc3)c3cc4ccccc4o3)c3ccccc32)cc1.[Br-] (configuration not stated)
7. CS(=O)(=O)OC(c1ccccc1)c1cc2ccccc2o1 (configuration not stated)

Completion:
1: > 40 µM; 2: > 40 µM; 3: > 40 µM; 4: 11 µM; 5: 2.06 µM; 6: 1.02 µM; 7: > 40 µM

* * *

Task for the reader: assign each of the following molecules its reported IC50.
system: MCF7; assay: Cytotoxicity against human MCF7 cells assessed as growth inhibition after 48 hrs by MTT assay; assay type: functional, cell-based; conditions: MCF7, 48 h

Quick batch: IC50 for everything below.
1. C=CC[n+]1cn(C(c2ccccc2)c2cc3ccccc3o2)c2ccccc21 (stereo not drawn)
2. Cc1n(C(c2ccccc2)c2cc3ccccc3o2)cc[n+]1CC(=O)c1ccc(O)cc1 (stereo not drawn)
3. C=CC[n+]1ccn(C(c2ccccc2)c2cc3ccccc3o2)c1C (stereo not drawn)

Completion:
["> 40 µM", "> 40 µM", "> 40 µM"]
